Attribute: EC50
System: phospho-ERK in melanoma derived WM-266-4 cells
EXPERIMENT_DESCRIPTION: Mechanistic cellular assay for Raf kinase activity (phospho-ERK, Bio-Plex)
Type: cell-based
EXPERIMENTAL_SETUP: Homo sapiens, treated 1-2 hr at 37° C., serum free medium, read-out: pERK EC50
Description: (2) Mechanistic Cellular Assay for Raf Kinase Activity The following method was utilized for quantifying the amount of phospho-ERK in melanoma derived WM-266-4 cells (one allele each of wild type BRaf and mutant BRaf (V600D) as an indicator of Raf kinase activity in cells treated with various kinase inhibitors. […] (2) Prepared phospho-ERK1,2 Bioplex beads by diluting 1:50 with Bioplex Wash Buffer (mixing 49 μL Wash Buffer with 1 μL of phospho-ERK1,2 Bioplex beads for each sample to be analyzed). […]

Here is how some compounds turned out for EC50.
[[record]]
compound = "C[C@@H](NC(=O)c1ccc2nc(N)sc2c1)c1ncc(C(=O)Nc2cc(C(F)(F)F)c(Cl)cn2)s1"
study_target = "phospho-ERK in melanoma derived WM-266-4 cells"
observation_type = "EC50"
value_measured = "≤ 100 nM"

[[record]]
compound = "CC(NC(=O)c1cc2c(cn1)ncn2C)c1cnc(Nc2cc(C#N)cc(C(C)(C)C)c2)s1 (stereo not drawn)"
study_target = "phospho-ERK in melanoma derived WM-266-4 cells"
observation_type = "EC50"
value_measured = "1000 to 10000 nM"


Measured EC50, "C[C@@H](NC(=O)c1cc2c(cn1)ncn2C1CN(S(C)(=O)=O)C1)c1cnc(Nc2ccc(C(F)(F)F)cc2)s1" : ≤ 100 nM

====

STUDY_TARGET: V599E Raf (Homo sapiens, UniProt P15056, V600E)
Sequence (P15056 whole entry V600E): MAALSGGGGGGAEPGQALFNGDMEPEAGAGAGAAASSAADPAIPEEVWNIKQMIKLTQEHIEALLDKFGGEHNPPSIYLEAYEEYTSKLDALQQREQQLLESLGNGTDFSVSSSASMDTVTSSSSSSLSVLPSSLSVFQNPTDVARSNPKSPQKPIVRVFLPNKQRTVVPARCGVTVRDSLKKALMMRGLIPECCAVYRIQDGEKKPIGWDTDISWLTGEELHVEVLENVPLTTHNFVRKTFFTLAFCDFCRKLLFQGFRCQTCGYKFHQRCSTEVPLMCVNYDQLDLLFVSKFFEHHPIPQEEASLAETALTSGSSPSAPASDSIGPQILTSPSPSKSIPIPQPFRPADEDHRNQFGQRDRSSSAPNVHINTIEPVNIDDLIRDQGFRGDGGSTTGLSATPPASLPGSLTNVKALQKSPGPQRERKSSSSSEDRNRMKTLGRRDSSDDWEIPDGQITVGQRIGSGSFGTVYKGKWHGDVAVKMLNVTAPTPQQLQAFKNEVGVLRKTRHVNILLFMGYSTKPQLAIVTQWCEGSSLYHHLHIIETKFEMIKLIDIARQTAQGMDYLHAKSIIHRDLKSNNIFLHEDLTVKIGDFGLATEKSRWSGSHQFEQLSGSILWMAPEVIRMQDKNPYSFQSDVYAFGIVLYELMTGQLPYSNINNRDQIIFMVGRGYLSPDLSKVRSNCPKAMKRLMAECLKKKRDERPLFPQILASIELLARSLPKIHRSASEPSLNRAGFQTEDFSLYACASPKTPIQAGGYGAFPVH
EXPERIMENT_DESCRIPTION: Biochemical FRET assay, mutant Raf (phosphorylation of MEK)
EXPERIMENTAL_SETUP: 0.125 nM V599E Raf, 100 nM biotin-MEK, 25 μM ATP, read-out: Raf (mut) inhibition
The following molecules are listed with their measured IC50 values.

[[record]]
molecule = "C[C@@H](NC(=O)c1cc2c(cn1)ncn2C1CN(C)C1)c1cnc(Nc2ccc(C(F)(F)F)cc2)s1 [Example 182]"
observation_type = "IC50"
value_measured = "≤ 100 nM"


Record summary for CC(=O)Nc1cccc(C(=O)N[C@H](C)c2ncc(C(=O)Nc3cc(C(F)(F)F)c(Cl)cn3)s2)n1 [Example 93] : reported IC50 = 100 to 1000 nM

# IC50 (molecule: Cc1cn(-c2cccc(C(=O)N[C@H](C)c3ncc(C(=O)Nc4cc(C(F)(F)F)c(Cl)cn4)s3)n2)cn1 [Example 334] ) is 100 to 1000 nM

Reported IC50 of C[C@@H](NC(=O)c1cc2c(cn1)ncn2C)c1cnc(Nc2ccc(C(F)(F)F)nc2)s1 (single isomer, unassigned) [Example 266] : 100 to 1000 nM

What the record says about CC(NC(=O)c1cc2c(cn1)ncn2C)c1cnc(Nc2cc(C#N)cc(C(C)(C)C)c2)s1 (stereo not shown) [Example 350] : IC50 is ≤ 100 nM

The recorded IC50 for entry C[C@@H](NC(=O)c1ccc2[nH]ccc2c1)c1ncc(C(=O)Nc2cc(C(F)(F)F)c(Cl)cn2)s1 [Example 56] equals ≤ 100 nM

The reported IC50 of the molecule CC(NC(=O)c1ccc2ncsc2c1)c1cnc(Nc2ccc(C(F)(F)F)cc2)s1 (stereo not shown) [Example 74] was ≤ 100 nM
